Attribute: glycan array binding signal (z-score)
# tested.target: Gal3S(b1-4)Glc
# protocol.description: glycan array binding signal (z-score within array); higher = stronger binding
# condition.label: glycan notation: IUPAC condensed, linker removed
Shown is part of a subset that was picked to be rich in the strongest signals.
Give the figure only, with no unit attached.

# binder, glycan array binding signal (z-score)
measured = [
    ("MAL (Maackia amurensis) (protein) SDELSFTINNFMPNQGDLLFQGVATVSPTGVLQLTSEENGQPLEYSVGRVLYTAPVRIWDSTTGAVASFSTSFTFVVKAARGASDGLAFFLAPPDSQIPSGSVSKYLGLFNNSNSDSSNQIVAVEFDTYFGHSYDPWDPNYRHIGIDVNGIESIKTVQWDWINGGVAFATITYLAPNKTLIASLVYPSNQTSFIVAASVDLKEILPEWVRVGFSAATGAPKAVETHDVRSWSFTSTLEANSPADVDN", 4.98),
]

Please examine the following record next.
For this binder ( OVGAL11 (Ovis aries), AAF64320 (protein) MDSLPNPYLQSVSLTVCYMVKIKANLLSAFGKNPELQVDFGTGTGQGGNIPFRFWYCDGMVVMNTFTDGSWQKEEKVLTDAFVPGQPFELQFLVLEKEYQVFVKNKPICQFAHRLPLQSVKMLDVRGDIVLTSVDTL ), measured glycan array binding signal (z-score) is 0.199
